FYI, the data here is from patent US4698354A.

- Protocol: Acute toxicity (DL50), mouse
- Study conditions: in vivo, po, os, sole administration, seven days observation
Measure name: LD50 at 168 h (mg/kg)
Give bare numbers, in mg/kg.

Would you mind telling me what LD50 at 168 h value was observed for COc1ccc(C(=O)NCc2cccnc2)cc1C(=O)NCc1cccnc1 [Picotamide monohydrate, reference compound] ? 3000

* * *

- Protocol: Per os absorbtion in rat, plasma levels
- Assay type: in vivo
- Study conditions: in vivo, po; rat; 100 mg/Kg per os, gum acacia suspension; 1 h; average of 8 determinations; read-out: blood level (plasma)
Measure name: concentration at 1 h (ng/mL)
One number for each entry, in ng/mL.

{"columns": ["Compound", "Unit symbol", "concentration at 1 h"],
 "data": [
  ["COc1ccc(C(N)=O)cc1C(=O)NCc1cccnc1", "ng/mL", 20200]
]}

In the following, a different compound is considered.
What concentration at 1 h value was documented for this compound, COc1ccc(C(=O)NCc2cccnc2)cc1C(=O)NCc1cccnc1 [Picotamide monohydrate, reference compound] ? 1200

* * *

- Protocol: Acute toxicity (DL50), rat
- Study conditions: in vivo, po, os, sole administration, seven days observation
Measure name: LD50 at 168 h (mg/kg)
One number for each entry, in mg/kg.

What does the data say about its LD50 at 168 h? Entry: COc1ccc(C(=O)NCc2cccnc2)cc1C(=O)NCc1cccnc1 [Picotamide monohydrate, reference compound] 3000

* * *

- Protocol: Per os absorbtion in rat, plasma levels
- Assay type: in vivo
- Study conditions: in vivo, po; rat; 100 mg/Kg per os, gum acacia suspension; 2 h; average of 8 determinations; read-out: blood level (plasma)
Measure name: concentration at 2 h

{"columns": ["Compound", "Experimental result"],
 "data": [
  ["COc1ccc(C(=O)NCc2cccnc2)cc1C(=O)NCc1cccnc1 [Picotamide monohydrate, reference compound]", "500 ng/mL"]
]}

As a next step, examine the compound that follows.
Which concentration at 2 h value is on record for COc1ccc(C(N)=O)cc1C(=O)NCc1cccnc1 ? 9400 ng/mL

* * *

What concentration at 0.5 h was measured for each of the following?
- Protocol: Per os absorbtion in rat, plasma levels
- Assay type: in vivo
- Study conditions: in vivo, po; rat; 100 mg/Kg per os, gum acacia suspension; 1/2 h; average of 8 determinations; read-out: blood level (plasma)
Give bare numbers, in ng/mL.

{"columns": ["Compound", "Unit symbol", "Experimental result"],
 "data": [
  ["COc1ccc(C(=O)NCc2cccnc2)cc1C(=O)NCc1cccnc1 [Picotamide monohydrate, reference compound]", "ng/mL", 3400]
]}

Please examine the following record next.
Looking for the measured concentration at 0.5 h of COc1ccc(C(N)=O)cc1C(=O)NCc1cccnc1 , can you help? 26900

* * *

- Protocol: Acute toxicity (DL50), rat
- Study conditions: in vivo, iv, sole administration, seven days observation
Measure name: LD50 at 168 h (mg/kg)
One number for each entry, in mg/kg.

Field: LD50 at 168 h. Fill in for each record below.
1. COc1ccc(C(N)=O)cc1C(=O)NCc1cccnc1
2. COc1ccc(C(=O)NCc2cccnc2)cc1C(=O)NCc1cccnc1 [Picotamide monohydrate, reference compound]

1: 450; 2: 190

* * *

- Test system: Blood platelet aggregation from ADP
- Protocol: Blood platelet anti-aggregate activity in vitro, ADP-induced aggregation, rabbit PRP
- Type: cell-based
- Study conditions: Oryctolagus cuniculus, 10 min, 10 minutes incubation at 37° C., read-out: IC50 (50% decrease of maximum amplitude of aggregation curve)
Measure name: IC50 (µM)
One number for each entry, in µM.

Give IC50 for all compounds that follow.
1. COc1ccc(C(N)=O)cc1C(=O)NCc1cccnc1
2. COc1ccc(C(=O)NCc2cccnc2)cc1C(=O)NCc1cccnc1 [Picotamide monohydrate, reference compound]

1: 125; 2: 930
